Parameter pKi, tested on UniProt:P50406, listed per item.
Sequence (P50406 whole entry): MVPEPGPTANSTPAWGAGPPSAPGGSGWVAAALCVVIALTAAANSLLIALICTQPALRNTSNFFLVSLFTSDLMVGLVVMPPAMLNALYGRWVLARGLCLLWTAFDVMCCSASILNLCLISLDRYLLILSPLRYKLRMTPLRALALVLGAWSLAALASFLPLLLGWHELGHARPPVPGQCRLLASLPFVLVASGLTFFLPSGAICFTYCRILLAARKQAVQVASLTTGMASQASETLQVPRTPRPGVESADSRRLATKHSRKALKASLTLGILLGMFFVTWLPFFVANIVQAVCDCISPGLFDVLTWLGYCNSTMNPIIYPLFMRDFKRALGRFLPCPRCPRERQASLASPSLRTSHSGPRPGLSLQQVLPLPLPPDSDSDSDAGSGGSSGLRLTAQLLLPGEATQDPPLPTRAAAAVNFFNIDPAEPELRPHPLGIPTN
Remember the convention: pKi equals -log10 of concentration in molar.

What measured pKi goes with CN1CCCCC1CCN1c2ccc(Br)cc2[Se]c2cc(Br)ccc21.Cl (centres undefined) ? 6.65

What measured pKi goes with CSc1ccc2c(c1)N(CCC1CCCCN1C)c1ccccc1S2 (centres undefined) ? 7.15

What measured pKi goes with CN1CCCCC1CCN1c2c(Cl)cc(Cl)cc2Sc2cc(Cl)cc(Cl)c21.Cl (centres undefined) ? 6.41

What measured pKi goes with CN1CCCCC1CCN1c2ccc(Br)cc2Sc2cc(Br)ccc21.Cl (centres undefined) ? 6.12
